- Test system: Barnyardgrass
- Test name: post-emergent herbicidal activity, greenhouse
- Format: in vivo
- Measurement conditions: Table II, 4 WAT, 1.12 kg/h
Readout name: post-emergent herbicidal activity index

Kindly give each listed record's post-emergent herbicidal activity index.
1. CC(C#N)OP(=O)(O)CNCC(=O)OCCCl (stereo not shown)
2. CC(C#N)OP(=O)(O)CNCC(=O)OCc1ccccc1 (stereo not shown)
3. CCOC(=O)CNCP(=O)(O)OCC(Cl)(Cl)Cl
4. CC(C#N)OP(=O)(CNCC#N)OC(C)C#N (stereo not shown)
5. CCOC(=O)CNCP(=O)(O)OC(C#N)CC (stereo not shown)
6. CCOCCOC(=O)CNCP(=O)(O)OC(C)C#N (stereo not shown)
7. CCOC(=O)CNCP(=O)(O)OC(C)C#N (stereo not shown)
8. CCOC(=O)CNCP(=O)(OCCN1CCCC1)OCCN1CCCC1

Out:
1. 3 (75-99% control)
2. 2 (50-74% control)
3. 3 (75-99% control)
4. 1 (25-49% control)
5. 4 (100% control)
6. 3 (75-99% control)
7. 3 (75-99% control)
8. 1 (25-49% control)

For every item below, please supply its post-emergent herbicidal activity index.
1. CCOC(=O)CNCP(=O)(OC(C)C#N)OC(C)C#N (stereo not shown)
2. CCCCCOC(=O)CNCP(=O)(O)OC(C)C#N (stereo not shown) [Example 6, hemihydrate]

Out:
3 (75-99% control)
3 (75-99% control)

====

Exercise: for every item that follows, state its recorded post-emergent herbicidal activity index.
- Test system: Crabgrass
- Test name: post-emergent herbicidal activity, greenhouse
- Format: in vivo
- Measurement conditions: Table II, 4 WAT, 5.6 kg/h

Some molecules with recorded post-emergent herbicidal activity index:
CCOC(=O)CNCP(=O)(O)OC(C)C#N (centres unmarked) [Example 5] | 4 (100% control)
CC(C#N)OP(=O)(CNCC#N)OC(C)C#N (centres unmarked) [Example 12] | 2 (50-74% control)
CCCCCOC(=O)CNCP(=O)(O)OC(C)C#N (centres unmarked) [Example 6, hemihydrate] | 4 (100% control)

I would be grateful if you could provide post-emergent herbicidal activity index for each of the following entries.
1. CCOC(=O)CNCP(=O)(OC(C)CC(=O)OCC)OC(C)CC(=O)OCC (centres unmarked) [Example 15]
2. CC(C#N)OP(=O)(O)CNCC(=O)OCc1ccccc1 (centres unmarked) [Example 10]

Out:
2 (50-74% control)
4 (100% control)

====

- Tested on: Cocklebur
- Test name: post-emergent herbicidal activity, greenhouse
- Format: in vivo
- Measurement conditions: Table I, 4 WAT, 11.2 kg/h
Readout name: post-emergent herbicidal activity index

CCOC(=O)CNCP(=O)(OCCCl)OCCCl | 0 (0-24% control)
CCOC(=O)CNCP(=O)(OC(C)C(=O)OC)OC(C)C(=O)OC (centres unmarked) | 0 (0-24% control)
CCOC(=O)CNCP(=O)(OC(C)CC(=O)OCC)OC(C)CC(=O)OCC (centres unmarked) | 1 (25-49% control)

Provide the reported post-emergent herbicidal activity index of each entry below, same order.
1. CCOC(=O)CNCP(=O)(OC(C)C#N)OC(C)C#N (centres unmarked)
2. CCOC(=O)CNCP(=O)(OC1CCCSC1)OC1CCCSC1 (centres unmarked)
3. CCOC(=O)CNCP(=O)(O)OC(C)C(=O)OC (centres unmarked)
4. CCOC(=O)CNCP(=O)(O)OCC(Cl)(Cl)Cl [Example 27]
5. CCOC(=O)CNCP(=O)(O)OC(C#N)CC (centres unmarked)
6. CC(C#N)OP(=O)(O)CNCC(=O)OCc1ccccc1 (centres unmarked)
7. CCOC(=O)CNCP(=O)(OC(C)(C)C#N)OC(C)(C)C#N

Out:
1. 3 (75-99% control)
2. 0 (0-24% control)
3. 2 (50-74% control)
4. 2 (50-74% control)
5. 4 (100% control)
6. 2 (50-74% control)
7. 0 (0-24% control)
